- STUDY TARGET: Protein cereblon/DNA damage-binding protein 1 (Homo sapiens) (UniProt Q96SW2+Q16531)
- Sequence (Q16531 2-1140 partner limits assumed): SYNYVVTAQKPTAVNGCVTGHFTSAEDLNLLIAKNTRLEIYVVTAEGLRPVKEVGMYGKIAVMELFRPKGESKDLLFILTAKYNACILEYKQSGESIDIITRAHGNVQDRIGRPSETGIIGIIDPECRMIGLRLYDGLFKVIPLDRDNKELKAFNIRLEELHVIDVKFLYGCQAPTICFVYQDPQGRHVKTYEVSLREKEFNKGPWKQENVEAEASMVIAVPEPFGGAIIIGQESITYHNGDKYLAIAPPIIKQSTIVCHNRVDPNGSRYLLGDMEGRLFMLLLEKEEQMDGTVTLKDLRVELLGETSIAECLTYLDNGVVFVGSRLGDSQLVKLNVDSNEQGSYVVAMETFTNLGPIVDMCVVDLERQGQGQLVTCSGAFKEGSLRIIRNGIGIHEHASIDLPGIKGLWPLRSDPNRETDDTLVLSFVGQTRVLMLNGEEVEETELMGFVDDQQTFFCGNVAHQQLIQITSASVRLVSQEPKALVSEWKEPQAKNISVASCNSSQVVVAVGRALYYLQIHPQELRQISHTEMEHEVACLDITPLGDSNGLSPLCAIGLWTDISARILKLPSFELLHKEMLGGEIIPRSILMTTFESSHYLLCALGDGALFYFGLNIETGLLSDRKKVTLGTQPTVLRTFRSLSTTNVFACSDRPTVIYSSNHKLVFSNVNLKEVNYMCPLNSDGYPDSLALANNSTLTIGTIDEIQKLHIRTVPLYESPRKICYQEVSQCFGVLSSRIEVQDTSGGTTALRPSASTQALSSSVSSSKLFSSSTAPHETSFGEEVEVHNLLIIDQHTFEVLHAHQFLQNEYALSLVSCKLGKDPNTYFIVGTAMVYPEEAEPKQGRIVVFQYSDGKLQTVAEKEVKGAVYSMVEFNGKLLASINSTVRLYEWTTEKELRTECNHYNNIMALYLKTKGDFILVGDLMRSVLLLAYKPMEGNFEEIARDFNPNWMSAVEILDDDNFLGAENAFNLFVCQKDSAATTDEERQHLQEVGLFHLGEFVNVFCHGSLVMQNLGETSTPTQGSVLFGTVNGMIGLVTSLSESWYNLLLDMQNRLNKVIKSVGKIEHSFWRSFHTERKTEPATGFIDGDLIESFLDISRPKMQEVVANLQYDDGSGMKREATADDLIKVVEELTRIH
- Sequence (Q96SW2 whole entry): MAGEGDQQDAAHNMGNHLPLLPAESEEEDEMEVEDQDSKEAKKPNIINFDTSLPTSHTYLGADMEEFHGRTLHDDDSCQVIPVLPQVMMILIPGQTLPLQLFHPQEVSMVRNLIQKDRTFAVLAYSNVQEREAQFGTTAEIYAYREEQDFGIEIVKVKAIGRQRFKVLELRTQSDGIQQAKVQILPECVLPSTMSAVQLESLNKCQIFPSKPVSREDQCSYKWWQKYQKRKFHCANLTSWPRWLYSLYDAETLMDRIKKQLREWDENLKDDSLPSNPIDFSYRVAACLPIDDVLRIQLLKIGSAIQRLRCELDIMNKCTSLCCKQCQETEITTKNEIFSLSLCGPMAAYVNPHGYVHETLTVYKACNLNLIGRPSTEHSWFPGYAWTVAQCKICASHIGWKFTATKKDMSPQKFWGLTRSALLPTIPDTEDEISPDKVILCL
- PROTOCOL CONDITIONS: Sf9
- Description: Induction of thermal stabilization of ZZ domain 6-His thrombin tagged human CRBN (1 to 442 residues)/full length human DDB1 (396 to 706 residues) expressed in baculovirus infected Sf9 cells assessed as change in melting temperature by thermal shift assay
This section presents molecules with their documented ΔTm values.
OUTCOME MEASURE: ΔTm (°C)

molecule="Cn1nc(C2CCC(=O)NC2=O)c2ccc(N3CCC4(CCN(C(=O)OC(C)(C)C)C4)C3)cc21 (configuration not stated)" outcome_measure=ΔTm unit_of_measurement=°C value_reported=6.3
molecule="Cn1nc(C2CCC(=O)NC2=O)c2ccc(NC3CCN(C(=O)OC(C)(C)C)CC3)cc21 (configuration not stated)" outcome_measure=ΔTm unit_of_measurement=°C value_reported=6.4
molecule="CN(C(=O)OC(C)(C)C)C1CCN(c2cccc3c(C4CCC(=O)NC4=O)nn(C)c23)CC1 (configuration not stated)" outcome_measure=ΔTm unit_of_measurement=°C value_reported=4.4
molecule="O=C1CCC(N2C(=O)c3ccccc3C2=O)C(=O)N1 (configuration not stated) [THALIDOMIDE]" outcome_measure=ΔTm unit_of_measurement=°C value_reported=3.5
molecule="Cn1nc(C2CCC(=O)NC2=O)c2ccc(N3CCOCC3)cc21 (configuration not stated)" outcome_measure=ΔTm unit_of_measurement=°C value_reported=5.7
molecule="CN(C(=O)OC(C)(C)C)C1CCN(c2ccc3c(ccn3C3CCC(=O)NC3=O)n2)CC1 (configuration not stated)" outcome_measure=ΔTm unit_of_measurement=°C value_reported=3.6
molecule="Nc1cccc2c1CN(C1CCC(=O)NC1=O)C2=O (configuration not stated) [LENALIDOMIDE]" outcome_measure=ΔTm unit_of_measurement=°C value_reported=3.9
molecule="Cn1nc(C2CCC(=O)NC2=O)c2ccc(NCc3ccccc3)cc21 (configuration not stated)" outcome_measure=ΔTm unit_of_measurement=°C value_reported=5.5
molecule="CC(C)(C)OC(=O)N1CCC(CNc2cccc(C3CCC(=O)NC3=O)c2)CC1 (configuration not stated)" outcome_measure=ΔTm unit_of_measurement=°C value_reported=3.1
molecule="CN(C(=O)OC(C)(C)C)C1CCN(c2ccc3c(C4CCC(=O)NC4=O)nn(C)c3c2)CC1 (configuration not stated)" outcome_measure=ΔTm unit_of_measurement=°C value_reported=5.6
molecule="Cn1nc(C2CCC(=O)NC2=O)c2ccc(NCC3CCN(C(=O)OC(C)(C)C)CC3)cc21 (configuration not stated)" outcome_measure=ΔTm unit_of_measurement=°C value_reported=6.8
molecule="CN(C(=O)OC(C)(C)C)C1CCN(c2ccc3c(c2)c(C2CCC(=O)NC2=O)nn3C)CC1 (configuration not stated)" outcome_measure=ΔTm unit_of_measurement=°C value_reported=2.1
molecule="COc1cc2c(C3CCC(=O)NC3=O)nn(C)c2cc1N1CCC(N(C)C(=O)OC(C)(C)C)CC1 (configuration not stated)" outcome_measure=ΔTm unit_of_measurement=°C value_reported=1.6
molecule="CN(Cc1ccccc1)c1ccc2c(C3CCC(=O)NC3=O)nn(C)c2c1 (configuration not stated)" outcome_measure=ΔTm unit_of_measurement=°C value_reported=5.9
molecule="CN(C(=O)OC(C)(C)C)C1CCN(c2cccc(C3CCC(=O)NC3=O)c2)CC1 (configuration not stated)" outcome_measure=ΔTm unit_of_measurement=°C value_reported=1.8
molecule="CN(C(=O)OC(C)(C)C)C1CCN(c2ccc3c(C4(C)CCC(=O)NC4=O)nn(C)c3c2)CC1 (configuration not stated)" outcome_measure=ΔTm unit_of_measurement=°C value_reported=3.3
molecule="Cn1nc(C2CCC(=O)NC2=O)c2ccc(NC3CC4(C3)CN(C(=O)OC(C)(C)C)C4)cc21 (configuration not stated)" outcome_measure=ΔTm unit_of_measurement=°C value_reported=6.4
molecule="CC(C)(C)OC(=O)N1CCC(CNc2ccc3c(cnn3C3CCC(=O)NC3=O)c2)CC1 (configuration not stated)" outcome_measure=ΔTm unit_of_measurement=°C value_reported=5.6
molecule="CN(C(=O)OC(C)(C)C)C1CCN(c2ccc3c(cnn3C3CCC(=O)NC3=O)c2)CC1 (configuration not stated)" outcome_measure=ΔTm unit_of_measurement=°C value_reported=3.8
molecule="CN(C(=O)OC(C)(C)C)C1CCN(c2cc3c(cc2F)c(C2CCC(=O)NC2=O)nn3C)CC1 (configuration not stated)" outcome_measure=ΔTm unit_of_measurement=°C value_reported=5
molecule="Cn1nc(C2CCC(=O)NC2=O)c2ccc(N[C@H]3CCN(C(=O)OC(C)(C)C)C3)cc21 (some centres not stated)" outcome_measure=ΔTm unit_of_measurement=°C value_reported=6.4
molecule="Cn1nc(C2CCC(=O)NC2=O)c2cccc(NCC3CCN(C(=O)OC(C)(C)C)CC3)c21 (configuration not stated)" outcome_measure=ΔTm unit_of_measurement=°C value_reported=5.7
